Source of measurements: paper PMC10583824

Target: PI5P4Kα (Homo sapiens)
Sequence (P48426 1-406): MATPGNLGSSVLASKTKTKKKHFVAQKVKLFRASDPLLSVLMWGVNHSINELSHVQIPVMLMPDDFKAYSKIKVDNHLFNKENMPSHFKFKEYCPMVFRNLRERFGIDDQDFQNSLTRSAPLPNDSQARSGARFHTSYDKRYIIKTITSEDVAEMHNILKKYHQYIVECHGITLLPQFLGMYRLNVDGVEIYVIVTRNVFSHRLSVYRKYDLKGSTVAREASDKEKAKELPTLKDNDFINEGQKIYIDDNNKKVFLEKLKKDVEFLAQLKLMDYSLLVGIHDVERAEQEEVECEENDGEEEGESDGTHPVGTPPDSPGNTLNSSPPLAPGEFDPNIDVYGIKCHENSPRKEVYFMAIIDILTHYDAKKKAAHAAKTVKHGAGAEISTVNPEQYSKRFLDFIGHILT
Test: biochemical
Conditions: ADP-Glo pIC50 PI5P4Kα, Table S1, two decimals; asterisk not explained
READOUT: IC50 (µM)
The figure you give is taken to be in µM; do not add the unit.

These solved cases illustrate the format of a correct answer.
SMILES_ENTRY	EXPERIMENTAL_SYSTEM	OBSERVED_VALUE
CN(C)C(=O)c1cc2c(Nc3ccc(S(C)(=O)=O)cc3)ncnc2s1	PI5P4Kα (Homo sapiens)	6.92
Cc1cc2c(Nc3ccc(Br)cc3)ncnc2s1	PI5P4Kα (Homo sapiens)	6.92

If you can, please state the reported IC50 value of COc1cnccc1-c1cc2c(Nc3ccc(Cl)cc3)ncnc2s1 .
1.32

###

Target: PI5P4Kα (Homo sapiens, UniProt P48426)
Sequence (P48426 1-406): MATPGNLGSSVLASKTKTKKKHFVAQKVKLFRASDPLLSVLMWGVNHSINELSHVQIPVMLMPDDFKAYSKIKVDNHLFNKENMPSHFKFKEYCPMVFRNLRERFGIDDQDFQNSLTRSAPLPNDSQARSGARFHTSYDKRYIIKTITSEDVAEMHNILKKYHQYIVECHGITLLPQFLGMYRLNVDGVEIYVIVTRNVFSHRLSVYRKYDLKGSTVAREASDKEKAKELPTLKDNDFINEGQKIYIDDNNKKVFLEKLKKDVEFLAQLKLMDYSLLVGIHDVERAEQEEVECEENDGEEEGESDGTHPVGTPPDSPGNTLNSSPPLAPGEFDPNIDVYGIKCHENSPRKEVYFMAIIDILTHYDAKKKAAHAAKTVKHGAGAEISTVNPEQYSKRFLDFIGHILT
Test: biochemical
Conditions: ADP-Glo pIC50 PI5P4Kα, Table S1, two decimals; asterisk not explained
READOUT: IC50 (nM)
Write the value in nM as a bare number.

Previously resolved entries follow.
MOLECULE	OUTPUT_UNIT	OBSERVED_VALUE
Cc1ccc(Nc2ncnc3sc(-c4cccnc4Cl)cc23)c(C)c1	nM	2950
COc1cnccc1-c1cc2c(Nc3ccc(SC)cc3)ncnc2s1 [COc1cnccc1-c1cc2c(ncnc2s1)Nc1ccc(cc1)SC]	nM	129

Consider the additional molecule presented here.
Name the reported IC50 value associated with the molecule CCc1ccc(Nc2ncnc3sc(-c4cccnc4Cl)cc23)cc1 [CCc1ccc(cc1)Nc1ncnc2sc(cc12)-c1cccnc1Cl]
324

###

Biological target: PI5P4Kα (Homo sapiens, UniProt P48426)
Settings: ADP-Glo; footnote a: inconsistent replicates, value shown is upper limit
Collected PI5P4Kα pIC50 values appear next to each entry.

Record excerpt, results attached:
SMILES_ENTRY	READOUT	OBSERVED_VALUE
Cc1csc2ncnc(Nc3ccc(S(C)(=O)=O)cc3)c12	PI5P4Kα pIC50	<4.3
CS(=O)(=O)c1ccc(Nc2ncnc3ccsc23)cc1	PI5P4Kα pIC50	<4.3

Given the entry CS(=O)(=O)c1ccc(Nc2ncnc3scc(C4CC4)c23)cc1 , report its measured PI5P4Kα pIC50.
<4.8

Further, for CS(=O)(=O)c1ccc(Nc2ncnc3sc(-c4ccncc4F)cc23)cc1 ?
<4.6

Same thing, different molecule: CS(=O)(=O)c1ccc(Nc2ncnc3scc(Cl)c23)cc1
<6.2

Please give the result for Cc1sc2ncnc(Nc3ccc(S(C)(=O)=O)cc3)c2c1C too.
<4.3

Now consider CCc1ccc(Nc2ncnc3sc(-c4cccnc4C)cc23)cc1 .
6.2

Subsequent entry: CN(C(=O)c1csc2ncnc(Nc3ccc(S(C)(=O)=O)cc3)c12)c1ccccc1
5.6

For Cc1ncccc1-c1cc2ncnc(Nc3ccc(N4CCCC4=O)cc3)c2s1 then?
7.0
